Entries annotated with measured GI50
Tested on: SN12C
Assay: NCI tumour cell line growth inhibition, 48 h
Active and inactive are the calls of the source. Rule as the data show it: active = GI50 up to about 1.1 µM and inactive = higher.

Example results:
>  <molecule>
CCCC1=NC(C(F)(F)F)(C(F)(F)F)N=C(N2CCOCC2)O1

>  <target.or.system>
SN12C

>  <value>
> 100 µM (inactive)

$$$$
>  <molecule>
COC(=O)C1C=NNC1C(=O)OC (stereo unspecified)

>  <target.or.system>
SN12C

>  <value>
> 100 µM (inactive)

$$$$
>  <molecule>
Nn1c(Cc2ccccc2)n[nH]c1=O

>  <target.or.system>
SN12C

>  <value>
> 100 µM (inactive)

$$$$
>  <molecule>
NC1=CN(CCCO)C2=N/C(=C\c3ccco3)C(=O)N12

>  <target.or.system>
SN12C

>  <value>
> 100 µM (inactive)

$$$$
>  <molecule>
C=CCOCC1C2CCC3(OCCO3)C21 (stereo unspecified)

>  <target.or.system>
SN12C

>  <value>
> 100 µM (inactive)

$$$$
>  <molecule>
O=P(O)(O)CN1CCN(CP(=O)(O)O)CCN(CP(=O)(O)O)CCN(CP(=O)(O)O)CC1

>  <target.or.system>
SN12C

>  <value>
> 100 µM (inactive)

$$$$
>  <molecule>
O=C1C2=Cc3ccccc3OC2(O)Oc2ccccc21 (stereo unspecified)

>  <target.or.system>
SN12C

>  <value>
> 100 µM (inactive)

$$$$
>  <molecule>
CSC(=S)NN=C1CCCC1.CSC(=S)NN=C1CCCC1.[Zn+2]

>  <target.or.system>
SN12C

>  <value>
17.9 µM (inactive)

$$$$

Ask: Determine from records and report GI50 for "CCN(CC)c1ccc2cc(C(N)=O)/c(=N/c3ccc(F)cc3)oc2c1"
Result: 45.4 µM (inactive)

Ask: Find the measured GI50 of O=C(O)CN1C(=O)OC(c2ccccc2)C1=O (stereo unspecified) and report it.
Result: > 100 µM (inactive)

Ask: Supply reported GI50 belonging to this molecule: COc1ccc(N2C(=O)c3c4c(c5c([nH]c6ncccc65)c3C2=O)CCC(C(C)(C)C)C4)cc1 (stereo unspecified)
Result: > 100 µM (inactive)

Entry source: ChEMBL document CHEMBL1201862
